All figures here come from patent US20250059164A1.

Hi there, I'd appreciate the recorded bioavailability for every entry that follows.
# assayProcedure: Rodent pharmacokinetics (rat PK)
# Assay type: in vivo
# measurementContext: po, dosed intravenously or orally by gavage, plasma, read-out: F % (bioavailability)

I have this compound here, CN(C[C@H]1CC[C@H](n2cc(NC(=O)c3cnn4cccnc34)c(C(F)F)n2)CC1)[C@@H]1CCN(c2cccc3c2n(C)c(=O)n3C2CCC(=O)NC2=O)C[C@H]1F (single isomer, unassigned) [I-279] , and I need its recorded bioavailability.
≥ 5%

Can you share its bioavailability? I mean this compound: Cn1nc(C2CCC(=O)NC2=O)c2cccc([C@H]3CCN(C[C@H]4CC[C@H](n5cc6cc(NC(=O)c7cncc(C#N)c7)c(C(C)(C)O)cc6n5)CC4)CC3(F)F)c21 (single isomer, unassigned) [I-223]
≤ 5%

What does the record list as bioavailability for Cn1c(=O)n(C2CCC(=O)NC2=O)c2cccc([C@@H]3CCN(C[C@H]4CC[C@H](n5cc6cc(NC(=O)c7cncc(C(F)F)n7)ccc6n5)CC4)CC3(F)F)c21 (some centres unmarked) [I-384] ?
≤ 5%

Entry under review: COc1cc2nn([C@H]3CC[C@H](CN4CC[C@H](c5cccc6c5c(C)nn6C5CCC(=O)NC5=O)[C@@H](F)C4)CC3)cc2cc1NC(=O)c1cncc(C#N)c1 (single isomer, unassigned) [I-266] . Reported bioavailability?
≤ 5%

Would you kindly share the measured bioavailability for Cn1c(=O)n(C2CCC(=O)NC2=O)c2cccc([C@@H]3CCN(C[C@H]4CC[C@H](c5cn6cc(NC(=O)c7cccc(C(F)(F)F)n7)ccc6n5)CC4)C[C@H]3F)c21 (some centres unmarked) [I-262] ?
≤ 5%

====

# assayProcedure: Rodent pharmacokinetics (rat PK)
# Type: in vivo
# measurementContext: po, dosed intravenously or orally by gavage, plasma, read-out: F % (bioavailability)
Task for the reader: assign each of the following compounds its reported bioavailability.

What does the data say about its bioavailability? Entry: COc1cn2nc([C@H]3CC[C@H](CN(C)[C@@H]4CCN(c5cccc6c5n(C)c(=O)n6C5CCC(=O)NC5=O)C[C@@H]4F)CC3)cc2cc1NC(=O)c1cncc(C(F)(F)F)n1 (single isomer, unassigned)
≤ 5%

Fill blank: measured bioavailability of the compound Cc1cncc(C(=O)Nc2cc3cn([C@H]4CC[C@H](CN5CCC6(CCN(c7cccc8c7n(C)c(=O)n8C7CCC(=O)NC7=O)CC6)C(F)(F)C5)CC4)nc3cc2C(C)(C)O)c1 (stereo partly drawn) is ____.
≤ 5%

bioavailability lookup needed for CN(C[C@H]1CC[C@H](n2cc(NC(=O)c3cnn4cccnc34)c(C(F)F)n2)CC1)[C@H]1CCN(c2cccc3c2n(C)c(=O)n3C2CCC(=O)NC2=O)C[C@@H]1F (single isomer, unassigned) , thanks.
≥ 5%

====

# subjectOfTest: IRAK4 (Homo sapiens)
# Construct: endogenous in cells; host or cells: OCI-LY10
# Sequence (Q9NWZ3 whole entry): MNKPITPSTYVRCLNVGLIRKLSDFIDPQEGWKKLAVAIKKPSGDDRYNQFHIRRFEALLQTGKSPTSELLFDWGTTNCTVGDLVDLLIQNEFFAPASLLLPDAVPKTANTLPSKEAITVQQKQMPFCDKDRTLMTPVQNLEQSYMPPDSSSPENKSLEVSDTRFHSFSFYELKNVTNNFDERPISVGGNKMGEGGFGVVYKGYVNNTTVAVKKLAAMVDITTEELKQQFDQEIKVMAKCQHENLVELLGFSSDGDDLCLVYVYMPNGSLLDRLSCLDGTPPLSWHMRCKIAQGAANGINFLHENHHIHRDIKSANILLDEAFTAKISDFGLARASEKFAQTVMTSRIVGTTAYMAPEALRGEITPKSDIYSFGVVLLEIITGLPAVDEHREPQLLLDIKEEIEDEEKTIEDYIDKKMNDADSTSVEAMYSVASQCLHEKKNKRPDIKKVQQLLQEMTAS
# assayProcedure: IRAK4 MSD degradation in OCI-LY10
# Format: cell-based
# measurementContext: OCI-LY10 cells, 24 hrs, Meso Scale Discovery
Consider the following molecules; for each one, report its DC50.

Given the entry COc1cc2nc([C@H]3CC[C@H](CN4CC[C@@H](c5cccc6c5n(C)c(=O)n6C5CCC(=O)NC5=O)[C@H](F)C4)CC3)sc2cc1NC(=O)c1cccc(C(F)(F)F)n1 (single isomer, unassigned) , report its measured DC50.
100 to 200 nM

// lookup DC50 for COc1cn2nc([C@H]3CC[C@H](CN(C)[C@@H]4CCN(c5cccc6c5n(C)c(=O)n6C5CCC(=O)NC5=O)C[C@@H]4F)CC3)cc2cc1NC(=O)c1cncc(C(F)(F)F)n1 (single isomer, unassigned)
< 10 nM

GET /values?readout=DC50&item= CN(C[C@H]1C[C@@H](n2cc(NC(=O)c3cnn4ccc(N5C[C@H]6C[C@@H]5CO6)nc34)c(C(F)F)n2)C1)[C@H]1CCN(c2cccc3c2n(C)c(=O)n3C2CCC(=O)NC2=O)C[C@@H]1F (single isomer, unassigned)
< 10 nM

Any idea what its DC50 is? The molecule is `O=C1CC[C@H](c2ccc(N3CC(N4CCN([C@H]5CC[C@H](n6cc(NC(=O)c7cnn8ccc(N9C[C@H]%10C[C@@H]9CO%10)nc78)c(C(F)F)n6)CC5)CC4)C3)cc2Cl)C(=O)N1`
< 10 nM

====

# assayProcedure: Rodent pharmacokinetics (rat PK)
# Format: in vivo
# measurementContext: po, dosed intravenously or orally by gavage, plasma, read-out: F % (bioavailability)
Assignment: determine reported bioavailability for the given molecules.

// returns reported bioavailability for input Cn1c(=O)n(C2CCC(=O)NC2=O)c2cccc(N3CCC4(CCN(C[C@H]5CC[C@H](n6cc7cc(NC(=O)c8cncc(C#N)c8)c(C(C)(C)O)cc7n6)CC5)CC4(F)F)CC3)c21 (mixture of isomers)
≤ 5%

Fill blank: measured bioavailability of the molecule COc1cc2nn([C@H]3CC[C@H](CN4CCC5(CN(c6ccc(C7CCC(=O)NC7=O)c(Cl)c6)C5)C(F)(F)C4)CC3)cc2cc1NC(=O)c1cncc(C#N)c1 (stereo partly drawn) is ____.
≤ 5%

# get_value(readout='bioavailability', item= COc1cc2nn([C@H]3CC[C@H](CN4CCC5(CN(c6c(F)ccc7c6n(C)c(=O)n7C6CCC(=O)NC6=O)C5)C(F)(F)C4)CC3)cc2cc1NC(=O)c1cncc(C#N)c1 (stereo partly drawn) )
≤ 5%

====

Could you please report measured bioavailability for the items listed next?
# assayProcedure: Rodent pharmacokinetics (rat PK)
# Type: in vivo
# measurementContext: po, dosed intravenously or orally by gavage, plasma, read-out: F % (bioavailability)

Given Cc1cc2nn([C@H]3CC[C@H](CN4CC[C@@H](c5cccc6c5n(C)c(=O)n6C5CCC(=O)NC5=O)[C@H](F)C4)CC3)cc2cc1NC(=O)c1cncc(C(F)(F)F)n1 (stereo partly shown) [I-286] , state its recorded bioavailability.
≤ 5%

Please report the recorded bioavailability for Cn1nc(C2CCC(=O)NC2=O)c2cccc([C@@H]3CCN(C[C@H]4CC[C@H](n5cc6cc(NC(=O)c7cncc(C#N)c7)c(C(C)(C)O)cc6n5)CC4)CC3(F)F)c21 (single isomer, unassigned) [I-222] .
≥ 5%

Consider the compound CN(C[C@H]1CC[C@H](c2nc3cc(C(C)(C)O)c(NC(=O)c4cncc(C(F)(F)F)c4)cc3s2)CC1)[C@H]1CCN(c2cccc3c2n(C)c(=O)n3C2CCC(=O)NC2=O)C[C@@H]1F (single isomer, unassigned) [I-160] and give its measured bioavailability.
≥ 5%

What value of bioavailability has been reported for the following compound? Cn1c(=O)n(C2CCC(=O)NC2=O)c2cccc([C@@H]3CCN(C[C@H]4CC[C@H](n5cc6cc(NC(=O)c7cccc(C(F)(F)F)c7)ncc6n5)CC4)C[C@H]3F)c21 (stereo partly shown) [I-244]
≤ 5%

Give its bioavailability value. Item: COc1cc2nn([C@H]3CC[C@H](CN4CCC5(CN(c6cccc7c6n(C)c(=O)n7C6CCC(=O)NC6=O)C5)C(F)(F)C4)CC3)cc2cc1NC(=O)c1cccc(C(F)(F)F)c1 (stereo partly shown) [I-255]
≤ 5%

Which bioavailability value belongs to Cn1c(=O)n(C2CCC(=O)NC2=O)c2cccc(N3CCC(F)(CN4CCC(c5nc6cc(C(C)(C)O)c(NC(=O)c7cccc(C(F)(F)F)n7)cc6s5)CC4)CC3)c21 (stereo not shown) [I-191] ?
≤ 5%

Which bioavailability value belongs to Cc1nn(C2CCC(=O)NC2=O)c2cccc([C@@H]3CCN(C[C@H]4CC[C@H](n5cc6cc(NC(=O)c7cncc(C(F)(F)F)n7)ncc6n5)CC4)C[C@H]3F)c12 (single isomer, unassigned) [I-340] ?
≥ 5%

I would be grateful if you could share the reported bioavailability for Cn1c(=O)n(C2CCC(=O)NC2=O)c2cccc([C@@H]3CCN(C[C@H]4CC[C@H](c5cn6cc(NC(=O)c7cncc(C(F)(F)F)n7)ccc6n5)CC4)C[C@H]3F)c21 (stereo partly shown) [I-193] .
≤ 5%

Need bioavailability, item COc1cc2nn([C@H]3CC[C@H](COCC4CN(c5cccc6c5n(C)c(=O)n6C5CCC(=O)NC5=O)C4)CC3)cc2cc1NC(=O)c1cncc(C#N)c1 (stereo partly shown) [I-270]
≤ 5%

Entry COc1cc2nn([C@H]3CC[C@H](CN4CC[C@@H](c5cccc6c5n(C)c(=O)n6C5CCC(=O)NC5=O)[C@H](F)C4)CC3)cc2cc1NC(=O)c1cncc(C(F)(F)F)c1 (stereo partly shown) [I-252] has what bioavailability?
≤ 5%

So what's the measured bioavailability for this one? COc1cc2nn([C@H]3CC[C@H](CN4CC[C@@H](c5cccc6c5n(C)c(=O)n6C5CCC(=O)NC5=O)[C@H](F)C4)CC3)cc2cc1C(=O)Nc1cccc(C(F)(F)F)c1 (stereo partly shown) [I-142]
≥ 5%

For the compound shown here, Cn1c(=O)n(C2CCC(=O)NC2=O)c2cccc([C@@H]3CCN(C[C@H]4CC[C@H](c5nc6cc(C(C)(C)O)c(NC(=O)c7cncc(C(F)(F)F)n7)cc6o5)CC4)C[C@H]3F)c21 (stereo partly shown) [I-288] , give the reported bioavailability.
≥ 5%

Suppose we examine the compound Cn1c(=O)n(C2CCC(=O)NC2=O)c2cccc([C@@H]3CCN(C[C@H]4CC[C@H](n5cc6cc(NC(=O)c7cc(C(F)(F)F)ncn7)ccc6n5)CC4)C[C@H]3F)c21 (stereo partly shown) [I-196] ; what bioavailability value has been reported?
≤ 5%

Reported bioavailability for Cc1cncc(C(=O)Nc2ccc3nn([C@H]4CC[C@H](CN5CC[C@@H](c6cccc7c6n(C)c(=O)n7C6CCC(=O)NC6=O)[C@H](F)C5)CC4)cc3c2)n1 (stereo partly shown) [I-307] : what is it?
≤ 5%

Which bioavailability reading was recorded for the compound Cn1c(=O)n(C2CCC(=O)NC2=O)c2cccc([C@@H]3CCN(C[C@H]4CC[C@H](n5cc6cc(NC(=O)c7cncc(OC(F)F)n7)ccc6n5)CC4)C[C@H]3F)c21 (stereo partly shown) [I-339] ?
≤ 5%

Please report the recorded bioavailability for CN(C[C@H]1CC[C@H](n2cc(NC(=O)c3cnn4cccnc34)c(C(F)F)n2)CC1)[C@@H]1CCN(c2cccc3c2n(C)c(=O)n3C2CCC(=O)NC2=O)C[C@@H]1F (single isomer, unassigned) [I-281] .
≥ 5%

What does the data say about its bioavailability? Entry: CN(C[C@H]1CC[C@H](c2cn3cc(NC(=O)c4cncc(C(F)(F)F)n4)ccc3n2)CC1)[C@@H]1CCN(c2cccc3c2n(C)c(=O)n3C2CCC(=O)NC2=O)C[C@@H]1F (single isomer, unassigned) [I-213]
≤ 5%

Find the recorded bioavailability belonging to COc1cc2nn([C@H]3CC[C@H](CN4CC[C@H](c5cccc6c(C7CCC(=O)NC7=O)nn(C)c56)[C@@H](F)C4)CC3)cc2cc1NC(=O)c1cncc(C#N)c1 (single isomer, unassigned) [I-264] and report it.
≤ 5%

Please look up its bioavailability: Cn1c(=O)n(C2CCC(=O)NC2=O)c2cccc([C@@H]3CCN(C[C@H]4CC[C@H](n5cc(NC(=O)c6cnn7ccc(N8C[C@H]9C[C@@H]8CO9)nc67)c(C(F)F)n5)CC4)C[C@H]3F)c21 (single isomer, unassigned) [I-329]
≤ 5%
